Tested on: SNB-19 CNS
Test: NCI-60 one-dose screen, 48 h
Settings: 10 µM unless noted
Compounds without any hit were thinned out: in the full panel of roughly 83,000, 20% have a hit. The source made the active and inactive calls. Rule for the calls: active = growth percent below 10; inactive = the rest.
Hello, when you answer, please use one of the following outcomes: Y = active, N = inactive

Exercise: Dear all, I need the recorded test outcome for `COc1ccc(C(C(=O)O)c2ccc(OC)cc2)cc1` , thank you.
Solution: N

Exercise: Dear all, I need the recorded test outcome for `[2H]C1([2H])CCN(C(=O)C2CC2)c2cc(NS(=O)(=O)c3ccc(-c4cccc(C(N)=O)c4)cc3)ccc21` , thank you.
Solution: N

Exercise: Dear all, I need the recorded test outcome for CCN(CC)CC(C)Nc1ccc(C)c2sc3ccccc3c(=O)c12 (stereo not given) , thank you.
Solution: N

Exercise: Dear all, I need the recorded test outcome for `C=C(C)[C@@H]1CC[C@]2(c3ncc(C)o3)CC[C@]3(C)[C@H](CC[C@@H]4[C@@](C)(CCC#N)[C@H](C(=C)C)CC[C@]43C)[C@@H]12` , thank you.
Solution: Y

Exercise: Dear all, I need the recorded test outcome for `COC(=O)C(=Cc1ccccc1[N+](=O)[O-])C(=O)OC` , thank you.
Solution: N

Exercise: Dear all, I need the recorded test outcome for `Cc1ccccc1OC(=O)c1cccc(Cl)c1` , thank you.
Solution: N

====

System: EKVX NSCLC
Experiment: NCI-60 one-dose screen, 48 h
Conditions: 10 µM unless noted
Compounds without any hit were thinned out: in the full panel of roughly 83,000, 20% have a hit. Active and inactive are the calls of the source. Rule for the calls: active = growth percent below 10; inactive = the rest.
Hello, when you answer, please use one of the following outcomes: true (1) = active, false (0) = inactive

Take a look at these entries with their results.
Exercise: Dear all, I need the recorded test outcome for CCN(CC)c1ccc2cc(C(Nc3ccc(Cl)cc3)c3nnnn3C(C)(C)C)c(=O)oc2c1 (stereo not given) , thank you.
Solution: false (0)

Exercise: Dear all, I need the recorded test outcome for `COC(=O)c1c(C)[nH]c(/C=C2\N=C(c3ccc[nH]3)C=C2OC)c1C` , thank you.
Solution: true (1)

Exercise: Dear all, I need the recorded test outcome for COc1ccc(C2NC(=O)C(C#N)c3c2sc2c(F)cccc32)cc1 (stereo not given) , thank you.
Solution: false (0)

Exercise: Dear all, I need the recorded test outcome for `O=C(N/N=C\c1cc(Cl)ccc1O)N/N=C/c1cc(Cl)ccc1O` , thank you.
Solution: false (0)

Exercise: Dear all, I need the recorded test outcome for `CCOC(=O)/C(C#N)=C(\C)CCc1ccccc1` , thank you.
Solution: false (0)

Exercise: Dear all, I need the recorded test outcome for `c1cc2ccc3cc2cc1CNCCN1CCNCc2ccc4ccc(cc4c2)CNCCN(CCNC3)CCNCc2ccc3ccc(cc3c2)CNCC1` , thank you.
Solution: false (0)

Exercise: Dear all, I need the recorded test outcome for `CCN(CC)CCCCCCNc1cccc2cc(Br)cnc12` , thank you.
Solution: false (0)

Exercise: Dear all, I need the recorded test outcome for `C=C(C)[C@@H]1CC[C@]2(C)[C@H](CC[C@@H]3[C@@H]([C@@](C)(O)CCC=C(C)C)CC[C@]32C)[C@@]1(C)CCC(=O)O` , thank you.
Solution: true (1)

Exercise: Dear all, I need the recorded test outcome for `CCCCCCSc1ncnc2nc[nH]c12` , thank you.
Solution: false (0)

Exercise: Dear all, I need the recorded test outcome for `Cn1cc(-c2noc(-c3cn(C)c4ncc(F)cc34)n2)c2ccccc21` , thank you.
Solution: false (0)

Next:
Exercise: Dear all, I need the recorded test outcome for Fc1cc2[nH]ncc2c2c3c(c(-c4cn[nH]c4C(F)(F)F)nc12)C1CCC3C1 (stereo not given) , thank you.
Solution: false (0)

Exercise: Dear all, I need the recorded test outcome for `O=C(Nc1cccnc1)c1ccc2ccc3ccc(C(=O)Nc4cccnc4)nc3c2n1` , thank you.
Solution: false (0)

Exercise: Dear all, I need the recorded test outcome for `CC(C)OC(=O)Nc1cc(F)ccc1F` , thank you.
Solution: false (0)

Exercise: Dear all, I need the recorded test outcome for `CC(C)CSc1ncnc2nc[nH]c12` , thank you.
Solution: false (0)

Exercise: Dear all, I need the recorded test outcome for `C[C@]12CCc3nc(Nc4ccccc4)sc3C1=CC[C@@H]1[C@@H]2CC[C@]2(C)/C(=N/NC(N)=S)CC[C@@H]12` , thank you.
Solution: false (0)

Exercise: Dear all, I need the recorded test outcome for `Cc1c(Cn2cc(COc3ccc(Br)cc3)nn2)c(C)c(Cn2cc(COc3ccc(Br)cc3)nn2)c(C)c1Cn1cc(COc2ccc(Br)cc2)nn1` , thank you.
Solution: false (0)

Exercise: Dear all, I need the recorded test outcome for `C=C(C)[C@@H]1CC[C@]2(C(=O)NCCNCCNC(=O)OC(C)(C)C)CC[C@]3(C)[C@H](CC[C@@H]4[C@@]5(C)CCC(=O)C(C)(C)[C@@H]5CC[C@]43C)[C@@H]12` , thank you.
Solution: false (0)

Exercise: Dear all, I need the recorded test outcome for `CSc1cccc([N+](=O)[O-])c1` , thank you.
Solution: false (0)

Exercise: Dear all, I need the recorded test outcome for `COc1cc(NN=C(c2ccc(O)cc2)c2ccc(O)cc2)c([N+](=O)[O-])cc1[N+](=O)[O-]` , thank you.
Solution: false (0)

Exercise: Dear all, I need the recorded test outcome for `O=C(CCN1CCCCC1)c1ccc2ccccc2c1` , thank you.
Solution: false (0)

Data credit: PubChem BioAssay (NCI)
